Tested on: PLC-PRF-5 cells
Experiment: Inhibition of proliferation of PLC-PRF-5 cells (ATPlite)
Assay type: cell-based
Conditions: Homo sapiens, PLC-PRF-5, PLC-PRF-5 cells; read-out: PLC-PRF-5 cell proliferation IC50
pIC50: −log10 of the molar value.

| COMPOUND | ASSAY TARGET | pIC50 |
| --- | --- | --- |
| Cc1cc(Oc2ccnc(NC(=O)C3CC3)c2)ccc1NC(=O)Nc1cccc(C(F)(F)F)c1 [Exe. 193] | PLC-PRF-5 cells | 5.64 |
| Cc1cc(NC(=O)Nc2cccc(C(F)(F)F)c2)cc(Oc2cc(NC(=O)C3CC3)ncn2)c1 [Exe. 094] | PLC-PRF-5 cells | 4.72 |
| CN1CCC(Oc2ccc(NC(=O)Nc3ccc(Oc4ccnc(NC(=O)C5CC5)c4)c(F)c3)cc2C(F)(F)F)CC1 [Exe. 188] | PLC-PRF-5 cells | 7.47 |
| O=C(Nc1cccc(Oc2cc(NC(=O)C3CC3)ncn2)c1)Nc1ccc(F)c(C(F)(F)F)c1 [Exe. 119] | PLC-PRF-5 cells | 4.73 |
| O=C(Nc1cc(F)cc(C(F)(F)F)c1)Nc1ccc(Oc2ccnc(NC(=O)C3CC3)c2)c(F)c1 [Exe. 155] | PLC-PRF-5 cells | 6.24 |
| O=C(Nc1ccc(Oc2ccnc(NC(=O)C3CC3)c2)cc1)Nc1cccc(OC(F)(F)F)c1 [Exe. 146] | PLC-PRF-5 cells | 6.16 |
| Cc1cc(NC(=O)Nc2cccc(OC(F)(F)F)c2)cc(Oc2cc(NC(=O)C3CC3)ncn2)c1 [Exe. 095] | PLC-PRF-5 cells | 4.72 |
| CC1(C(=O)Nc2cc(Oc3ccc(NC(=O)Nc4ccc(Cl)c(C(F)(F)F)c4)cc3F)ccn2)CC1 [Exe. 028] | PLC-PRF-5 cells | 5.60 |
| CC(F)(F)c1cc(NC(=O)Nc2ccc(Oc3ccnc(NC(=O)C4CC4)c3)cc2F)ccc1F [Exe. 220] | PLC-PRF-5 cells | 6.62 |
| Cc1cc(Oc2cc(NC(=O)C3CC3)ncn2)ccc1NC(=O)Nc1ccc(F)c(C(F)(F)F)c1 [Exe. 070] | PLC-PRF-5 cells | 5.03 |
| O=C(Nc1cc(F)cc(Oc2ccnc(NC(=O)C3CC3)c2)c1)Nc1ccc(Cl)c(C(F)(F)F)c1 [Exe. 024] | PLC-PRF-5 cells | 5.37 |
| Cc1cc(NC(=O)Nc2ccc(F)c(C(F)(F)F)c2)cc(Oc2cc(NC(=O)C3CC3)ncn2)c1 [Exe. 092] | PLC-PRF-5 cells | 4.76 |
| O=C(Nc1cc(N2CCC(F)CC2)cc(C(F)(F)F)c1)Nc1ccc(Oc2ccnc(NC(=O)C3CC3)c2)c(F)c1 [Exe. 046] | PLC-PRF-5 cells | 6.19 |
| Cc1ccc(Oc2ccnc(NC(=O)C3CC3)c2)cc1NC(=O)Nc1ccc(Cl)c(C(F)(F)F)c1 [Exe. 030] | PLC-PRF-5 cells | 5.55 |
| O=C(Nc1cc(F)cc(Oc2cc(NC(=O)C3CC3)ncn2)c1)Nc1ccc(F)c(C(F)(F)F)c1 [Exe. 097] | PLC-PRF-5 cells | 5.04 |
| Cc1cc(NC(=O)Nc2cc(OC(C)C)cc(C(F)(F)F)c2)cnc1Oc1ccnc(NC(=O)C2CC2)c1 [Exe. 126] | PLC-PRF-5 cells | 5.61 |
